experiment: O2 solubility of fluorocarbons (Table 1); assay type: physicochemical
experimental.readout: O2 solubility

> print(dat)
                                   compound  experimental.readout            observed.result
1  FC(F)(F)C(F)(F)C(F)(F)C(F)(F)C(F)(F)C(F)(F)C(F)(F)C(F)(F)Br [Perfluorooctyl bromide]         O2 solubility  50 ml of O2 /100 ml of Fc
2  FC(F)(F)C(F)(F)C(F)(F)N(C(F)(F)C(F)(F)C(F)(F)F)C(F)(F)C(F)(F)C(F)(F)F [F-tripropylamine]         O2 solubility  45 ml of O2 /100 ml of Fc
3  FC1(F)OC(F)(F)C(F)(F)N(C(F)(F)C2(F)C(F)(F)C(F)(F)C(F)(F)C(F)(F)C2(F)F)C1(F)F [F-cyclohexylmethyl-morpholine]         O2 solubility  42 ml of O2 /100 ml of Fc
4  FC(F)(F)C(F)(F)C(F)(F)C(F)(F)C1(F)OC(F)(F)C(F)(F)C1(F)F (stereo not drawn) [Perfluorobutyl-tetrahydrofuran]         O2 solubility  52 ml of O2 /100 ml of Fc
5  FC(F)(F)C1(F)C(F)(F)C(F)(F)C(F)(F)C(F)(F)C1(F)F [F-methylcyclohexane]         O2 solubility  57 ml of O2 /100 ml of Fc
6  FC(F)(F)C(F)(F)C(F)(F)C(F)(F)C(F)(F)C(F)(F)OC(F)(F)C(F)(F)C(F)(F)C(F)(F)C(F)(F)C(F)(F)F [F-dihexyl ether]         O2 solubility  45 ml of O2 /100 ml of Fc

====

test: O2 solubility of fluorocarbons (Table 1); format: physicochemical
Listed next: entries and their corresponding O2 solubility.
experimental.readout: O2 solubility

> print(dat)
                                   molecule  experimental.readout            observed.result
1  FC(F)(F)C(F)(F)C(F)(F)C(F)(F)C=CC(F)(F)C(F)(F)C(F)(F)C(F)(F)F         O2 solubility  50 ml of O2 /100 ml of Fc
2  FC(F)(F)C(F)(F)C(F)(F)C(F)(F)C(F)(F)C(F)(F)F         O2 solubility  58 ml of O2 /100 ml of Fc
3  FC(F)(F)C(F)(F)C(F)(F)C(F)(F)N(C(F)(F)C(F)(F)C(F)(F)C(F)(F)F)C(F)(F)C(F)(F)C(F)(F)C(F)(F)F         O2 solubility  40 ml of O2 /100 ml of Fc
4  FC1(F)C(F)(F)C(F)(F)C2(F)C(F)(F)C(F)(F)C(F)(F)C(F)(F)C2(F)C1(F)F (stereo not shown)         O2 solubility  40 ml of O2 /100 ml of Fc

====

assay: Critical solubility temperature (CST) of fluorocarbons in n-hexane; conditions: in n-hexane
Think of 40 °C as a floor: if CST (critical solubility temperature) stands on it or above, it is criterion met; beneath it, criterion not met.

> print(dat)
                                   molecule       answer.label
1  FC(F)(F)C(F)(F)C(F)(F)C(F)(F)C=CC(F)(F)C(F)(F)C(F)(F)C(F)(F)F  criterion not met
2  FC(F)(F)C1(F)C(F)(F)C(F)(F)C(F)(F)C(F)(F)C1(F)F  criterion not met
3  FC1(F)OC(F)(F)C(F)(F)N(C(F)(F)C2(F)C(F)(F)C(F)(F)C(F)(F)C(F)(F)C2(F)F)C1(F)F  criterion not met
4  FC(F)(F)C(F)(F)C(F)(F)C(F)(F)C(F)(F)C(F)(F)OC(F)(F)C(F)(F)C(F)(F)C(F)(F)C(F)(F)C(F)(F)F      criterion met
5  FC(F)(F)C(F)(F)C(F)(F)C(F)(F)C1(F)OC(F)(F)C(F)(F)C1(F)F (stereo not drawn) [Perfluorobutyl-tetrahydrofuran]  criterion not met
6  FC(F)(F)C(F)(F)C(F)(F)C(F)(F)N(C(F)(F)C(F)(F)C(F)(F)C(F)(F)F)C(F)(F)C(F)(F)C(F)(F)C(F)(F)F      criterion met

Origin of the recorded values: patent US5643601A
